Biological target: cloned human M5 muscarinic receptor (Homo sapiens, UniProt P08912)
Sequence (P08912 whole entry): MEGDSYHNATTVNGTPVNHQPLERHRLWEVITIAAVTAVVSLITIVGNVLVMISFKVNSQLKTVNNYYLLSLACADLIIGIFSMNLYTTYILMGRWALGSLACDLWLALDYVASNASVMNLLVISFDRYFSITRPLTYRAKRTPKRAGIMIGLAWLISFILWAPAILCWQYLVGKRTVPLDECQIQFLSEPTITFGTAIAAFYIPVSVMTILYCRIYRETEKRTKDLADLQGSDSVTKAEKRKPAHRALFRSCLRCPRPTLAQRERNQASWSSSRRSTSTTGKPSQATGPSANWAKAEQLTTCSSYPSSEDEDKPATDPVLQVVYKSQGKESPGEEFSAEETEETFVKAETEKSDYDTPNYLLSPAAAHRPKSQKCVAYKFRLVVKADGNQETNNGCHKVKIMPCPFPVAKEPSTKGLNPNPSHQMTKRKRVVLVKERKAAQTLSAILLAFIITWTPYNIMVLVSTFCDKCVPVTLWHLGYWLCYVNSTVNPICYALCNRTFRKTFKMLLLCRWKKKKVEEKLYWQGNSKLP
Assay: Muscarinic binding activity, 3H-QNB displacement, M5
Settings: membranes from stably transfected CHO cells, 3H-QNB 100-200 pM, 25° C., 90 minutes
Measurement Name: log10 of Ki (log10 of the value in nM)
Each number you see is log10 of Ki, and the unit inside the log is nM.

Compound | log10 of Ki
Cc1c(Cl)cccc1C(=O)N1CCC(N2CCC3(CC2)CC3(C)c2ccc(OC(C)C)cc2)CC1 (centres unmarked) | 3.08

Now turn to the next compound.
Entry CC(C)Oc1ccc(C2C(Cl)(Cl)C23CCN(C2CCN(C(=O)c4cccc(F)c4N)CC2)CC3)cc1 (centres unmarked) ; log10 of Ki = 1.62

----------
Molecular target: UniProt P08172
Experiment: Muscarinic binding activity, 3H-QNB displacement, M2
Conditions: membranes from stably transfected CHO cells, 3H-QNB 100-200 pM, 25° C., 90 minutes
Measurement Name: log10 Ki (log10 of the value in nM)
The base-10 logarithm of Ki, taken with Ki in nM, is what appears here.

# example entries with known answers
Compound | log10 Ki
Cc1cccc(C(=O)N2CCC(N3CCC4(CC3)C(c3ccc(OC(C)C)cc3)C4(Cl)Cl)CC2)c1N (centres unmarked) [Compound 4] | 1.89
CC(C)Oc1ccc(C2C(Cl)(Cl)C23CCN(C2CCN(C(=O)c4cccc(Cl)c4N)CC2)CC3)cc1 (centres unmarked) [Compound 5] | 3.14
CC(C)Oc1ccc(C2(C)CC23CCN(C2CCN(C(=O)c4cccc(Cl)c4N)CC2)CC3)cc1 (centres unmarked) [Compound 11] | 1.69
CC(C)Oc1ccc(C2CC23CCN(C2CCN(C(=O)c4cccc(Cl)c4N)CC2)CC3)cc1 (centres unmarked) [Compound 9] | 2.69
CCCS(=O)(=O)N1CCC(N2CCC3(CC2)C(c2ccc(OC(C)C)cc2)C3(Cl)Cl)CC1 (centres unmarked) [Compound 15] | 2.68

# log10 Ki of CC(C)Oc1ccc(C2C(Cl)(Cl)C23CCN(C2CCN(S(=O)(=O)c4cccc5ccccc45)CC2)CC3)cc1 (centres unmarked) [Compound 16] = 3.26

So for CC(C)Oc1ccc(C2(C)CC23CCN(C2CCN(C(=O)c4cccc(Cl)c4Cl)CC2)CC3)cc1 (centres unmarked) [Compound 10] , the logged log10 Ki turned out to be 2.17

For record Cc1c(Cl)cccc1C(=O)N1CCC(N2CCC3(CC2)CC3(C)c2ccc(OC(C)C)cc2)CC1 (centres unmarked) [Compound 12] the listed log10 Ki is 2.05

Briefly, log10 Ki measured for CC(C)Oc1ccc(C2C(Cl)(Cl)C23CCN(C2CCN(C(=O)c4cccc(F)c4N)CC2)CC3)cc1 (centres unmarked) [Compound 6] : 3.08

For record CC(C)Oc1ccc(C2CC23CCN(C2CCN(C(=O)c4cccc(Cl)c4Cl)CC2)CC3)cc1 (centres unmarked) [Compound 8] the listed log10 Ki is 2.78

----------
Target: cloned human M1 muscarinic receptor (Homo sapiens, UniProt P11229)
Sequence (P11229 whole entry): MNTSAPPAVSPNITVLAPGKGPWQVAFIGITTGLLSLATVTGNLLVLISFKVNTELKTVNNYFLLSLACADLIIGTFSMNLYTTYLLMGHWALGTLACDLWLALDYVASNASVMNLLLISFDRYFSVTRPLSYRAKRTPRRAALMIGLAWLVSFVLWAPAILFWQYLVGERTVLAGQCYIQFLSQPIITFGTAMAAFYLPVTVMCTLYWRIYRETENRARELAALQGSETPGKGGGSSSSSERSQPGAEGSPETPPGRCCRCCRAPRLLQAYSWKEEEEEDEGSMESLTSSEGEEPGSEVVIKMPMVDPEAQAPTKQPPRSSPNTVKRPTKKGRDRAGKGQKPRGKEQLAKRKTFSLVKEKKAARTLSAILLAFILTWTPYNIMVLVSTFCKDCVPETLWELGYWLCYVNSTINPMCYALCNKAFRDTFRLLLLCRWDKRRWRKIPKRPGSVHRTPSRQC
Assay: Muscarinic binding activity, 3H-QNB displacement, M1
Details: membranes from stably transfected CHO cells, 3H-QNB 100-200 pM, 25° C., 90 minutes
Recorded Ki, one value per entry.
The response must be a number in nM with no trailing unit.

Some compounds with recorded Ki:
Compound | Ki / nM
Cc1c(Cl)cccc1C(=O)N1CCC(N2CCC3(CC2)C(c2ccc(OC(C)C)cc2)C3(Cl)Cl)CC1 (stereo not drawn) | 982
CC(C)Oc1ccc(C2(C)CC23CCN(C2CCN(C(=O)c4cccc(Cl)c4Cl)CC2)CC3)cc1 (stereo not drawn) | 1010

Here is another compound to look at.
Measured Ki, CC(C)Oc1ccc(C2(C)CC23CCN(C2CCN(C(=O)c4cccc(Cl)c4N)CC2)CC3)cc1 (stereo not drawn) : 600

----------
Molecular target: cloned human M5 muscarinic receptor (Homo sapiens, UniProt P08912)
Experiment: Muscarinic binding activity, 3H-QNB displacement, M5
Details: membranes from stably transfected CHO cells, 3H-QNB 100-200 pM, 25° C., 90 minutes
Measurement Name: Ki (nM)
Answer with a number only, understood to be in nM.

Molecule | Assay Target | Ki / nM
CC(C)Oc1ccc(C2C(Cl)(Cl)C23CCN(C2CCN(C(=O)c4cccc(Cl)c4N)CC2)CC3)cc1 (stereo not drawn) | cloned human M5 muscarinic receptor (Homo sapiens, UniProt P08912) | 786
CC(C)Oc1ccc(C2(C)CC23CCN(C2CCN(C(=O)c4cccc(Cl)c4N)CC2)CC3)cc1 (stereo not drawn) | cloned human M5 muscarinic receptor (Homo sapiens, UniProt P08912) | 619
Cc1cccc(C(=O)N2CCC(N3CCC4(CC3)C(c3ccc(OC(C)C)cc3)C4(Cl)Cl)CC2)c1N (stereo not drawn) | cloned human M5 muscarinic receptor (Homo sapiens, UniProt P08912) | 96

Cc1cccc(C(=O)N2CCC(N3CCC4(CC3)C(c3ccc(OC(C)C)cc3)C4(Cl)Cl)CC2)c1Cl (stereo not drawn) has a reported Ki of 891

Entry CC(C)Oc1ccc(C2(C)CC23CCN(C2CCN(C(=O)c4cccc(Cl)c4Cl)CC2)CC3)cc1 (stereo not drawn) , Ki reported as 995

----------
Biological target: cloned human M2 muscarinic receptor (Homo sapiens, UniProt P08172)
Sequence (P08172 whole entry): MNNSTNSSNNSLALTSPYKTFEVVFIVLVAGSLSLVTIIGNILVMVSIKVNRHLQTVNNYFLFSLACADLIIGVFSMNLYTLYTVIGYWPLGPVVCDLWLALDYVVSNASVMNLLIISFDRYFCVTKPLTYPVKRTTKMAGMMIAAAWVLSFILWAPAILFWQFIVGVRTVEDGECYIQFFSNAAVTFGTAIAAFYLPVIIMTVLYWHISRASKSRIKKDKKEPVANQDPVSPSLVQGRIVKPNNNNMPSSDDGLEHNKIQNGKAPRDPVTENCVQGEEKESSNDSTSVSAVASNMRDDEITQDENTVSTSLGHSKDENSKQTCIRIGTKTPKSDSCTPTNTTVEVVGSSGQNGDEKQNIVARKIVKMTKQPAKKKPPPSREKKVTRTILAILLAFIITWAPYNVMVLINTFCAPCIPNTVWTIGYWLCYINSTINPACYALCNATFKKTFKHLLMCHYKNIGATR
Assay: Muscarinic binding activity, 3H-QNB displacement, M2
Conditions: membranes from stably transfected CHO cells, 3H-QNB 100-200 pM, 25° C., 90 minutes
Recorded Ki for the following compounds

These recorded examples may help you get a feel for the data.
Compound | Assay Target | Observed Measurement
Cc1cccc(C(=O)N2CCC(N3CCC4(CC3)C(c3ccc(OC(C)C)cc3)C4(Cl)Cl)CC2)c1Cl (stereo not shown) | cloned human M2 muscarinic receptor (Homo sapiens, UniProt P08172) | > 1400 nM
Cc1cccc(C)c1C(=O)N1CCC(N2CCC3(CC2)C(c2ccc(OC(C)C)cc2)C3(Cl)Cl)CC1 (stereo not shown) | cloned human M2 muscarinic receptor (Homo sapiens, UniProt P08172) | > 1900 nM
CC(C)Oc1ccc(C2C(Cl)(Cl)C23CCN(C2CCN(C(=O)c4cccc5c(Br)cccc45)CC2)CC3)cc1 (stereo not shown) | cloned human M2 muscarinic receptor (Homo sapiens, UniProt P08172) | > 1900 nM
Cc1c(Cl)cccc1C(=O)N1CCC(N2CCC3(CC2)CC3c2ccc(OC(C)C)cc2)CC1 (stereo not shown) | cloned human M2 muscarinic receptor (Homo sapiens, UniProt P08172) | > 1380 nM
CC(C)Oc1ccc(C2C(Cl)(Cl)C23CCN(C2CCN(C(=O)c4ccc(F)c5ccccc45)CC2)CC3)cc1 (stereo not shown) | cloned human M2 muscarinic receptor (Homo sapiens, UniProt P08172) | > 1900 nM

Measured Ki, CC(C)Oc1ccc(C2C(Cl)(Cl)C23CCN(C2CCN(C(=O)c4cccc(Cl)c4Cl)CC2)CC3)cc1 (stereo not shown) : > 1440 nM

Value of Ki reported for the compound Cc1c(Cl)cccc1C(=O)N1CCC(N2CCC3(CC2)C(c2ccc(OC(C)C)cc2)C3(Cl)Cl)CC1 (stereo not shown) is > 1400 nM

----------
Target: UniProt P11229
Test: Muscarinic binding activity, 3H-QNB displacement, M1
Settings: membranes from stably transfected CHO cells, 3H-QNB 100-200 pM, 25° C., 90 minutes
Measurement Name: Ki

Example entries begin here.
Compound | Assay Target | Ki
CC(C)Oc1ccc(C2C(Cl)(Cl)C23CCN(C2CCN(C(=O)c4cccc5c(Br)cccc45)CC2)CC3)cc1 (stereo not drawn) | UniProt P11229 | > 1200 nM
Cc1cccc(C(=O)N2CCC(N3CCC4(CC3)C(c3ccc(OC(C)C)cc3)C4(Cl)Cl)CC2)c1N (stereo not drawn) | UniProt P11229 | > 990 nM

Next item in the queue.
Data point: CC(C)Oc1ccc(C2C(Cl)(Cl)C23CCN(C2CCN(C(=O)c4cccc(Cl)c4N)CC2)CC3)cc1 (stereo not drawn) ; Ki = > 990 nM
